Measurement target: PIKFYVE (Homo sapiens)
Assay method text: Cell-based Pikfyve inhibition activity assay (EEA1 staining, mean vesicle size in BJ fibroblast cells)
Condition details: Table 4, 4 hours treatment, 3 μM Apilimod = 100% inhibition
Provide the recorded EC50 for the entries that follow.

[[record]]
chemical_string = "Cc1cccc(-c2ccn(-c3cc(N4CCOCC4)nc(CCc4ccnn4C)n3)n2)c1"
result_value = "> 5000 nM"


Would you mind giving EC50 for every molecule in the list below?
1. Cc1cccc(-c2ccn(-c3cc(N4CCOCC4)nc(OCc4cn[nH]c4)n3)n2)c1
2. CC#CCCOc1nc(N2CCOCC2)cc(-n2ccc(-c3cccc(C)c3)n2)n1
3. Cc1cccc(-c2cc(CN(C)C)n(-c3cc(N4CCOCC4)nc(OCCc4cnn(C)c4)n3)n2)c1

Completion:
["100 to 500 nM", "20 to 100 nM", "20 to 100 nM"]

###

Measurement target: PIKFYVE (Homo sapiens, UniProt Q9Y2I7)
Sequence (Q9Y2I7 whole entry): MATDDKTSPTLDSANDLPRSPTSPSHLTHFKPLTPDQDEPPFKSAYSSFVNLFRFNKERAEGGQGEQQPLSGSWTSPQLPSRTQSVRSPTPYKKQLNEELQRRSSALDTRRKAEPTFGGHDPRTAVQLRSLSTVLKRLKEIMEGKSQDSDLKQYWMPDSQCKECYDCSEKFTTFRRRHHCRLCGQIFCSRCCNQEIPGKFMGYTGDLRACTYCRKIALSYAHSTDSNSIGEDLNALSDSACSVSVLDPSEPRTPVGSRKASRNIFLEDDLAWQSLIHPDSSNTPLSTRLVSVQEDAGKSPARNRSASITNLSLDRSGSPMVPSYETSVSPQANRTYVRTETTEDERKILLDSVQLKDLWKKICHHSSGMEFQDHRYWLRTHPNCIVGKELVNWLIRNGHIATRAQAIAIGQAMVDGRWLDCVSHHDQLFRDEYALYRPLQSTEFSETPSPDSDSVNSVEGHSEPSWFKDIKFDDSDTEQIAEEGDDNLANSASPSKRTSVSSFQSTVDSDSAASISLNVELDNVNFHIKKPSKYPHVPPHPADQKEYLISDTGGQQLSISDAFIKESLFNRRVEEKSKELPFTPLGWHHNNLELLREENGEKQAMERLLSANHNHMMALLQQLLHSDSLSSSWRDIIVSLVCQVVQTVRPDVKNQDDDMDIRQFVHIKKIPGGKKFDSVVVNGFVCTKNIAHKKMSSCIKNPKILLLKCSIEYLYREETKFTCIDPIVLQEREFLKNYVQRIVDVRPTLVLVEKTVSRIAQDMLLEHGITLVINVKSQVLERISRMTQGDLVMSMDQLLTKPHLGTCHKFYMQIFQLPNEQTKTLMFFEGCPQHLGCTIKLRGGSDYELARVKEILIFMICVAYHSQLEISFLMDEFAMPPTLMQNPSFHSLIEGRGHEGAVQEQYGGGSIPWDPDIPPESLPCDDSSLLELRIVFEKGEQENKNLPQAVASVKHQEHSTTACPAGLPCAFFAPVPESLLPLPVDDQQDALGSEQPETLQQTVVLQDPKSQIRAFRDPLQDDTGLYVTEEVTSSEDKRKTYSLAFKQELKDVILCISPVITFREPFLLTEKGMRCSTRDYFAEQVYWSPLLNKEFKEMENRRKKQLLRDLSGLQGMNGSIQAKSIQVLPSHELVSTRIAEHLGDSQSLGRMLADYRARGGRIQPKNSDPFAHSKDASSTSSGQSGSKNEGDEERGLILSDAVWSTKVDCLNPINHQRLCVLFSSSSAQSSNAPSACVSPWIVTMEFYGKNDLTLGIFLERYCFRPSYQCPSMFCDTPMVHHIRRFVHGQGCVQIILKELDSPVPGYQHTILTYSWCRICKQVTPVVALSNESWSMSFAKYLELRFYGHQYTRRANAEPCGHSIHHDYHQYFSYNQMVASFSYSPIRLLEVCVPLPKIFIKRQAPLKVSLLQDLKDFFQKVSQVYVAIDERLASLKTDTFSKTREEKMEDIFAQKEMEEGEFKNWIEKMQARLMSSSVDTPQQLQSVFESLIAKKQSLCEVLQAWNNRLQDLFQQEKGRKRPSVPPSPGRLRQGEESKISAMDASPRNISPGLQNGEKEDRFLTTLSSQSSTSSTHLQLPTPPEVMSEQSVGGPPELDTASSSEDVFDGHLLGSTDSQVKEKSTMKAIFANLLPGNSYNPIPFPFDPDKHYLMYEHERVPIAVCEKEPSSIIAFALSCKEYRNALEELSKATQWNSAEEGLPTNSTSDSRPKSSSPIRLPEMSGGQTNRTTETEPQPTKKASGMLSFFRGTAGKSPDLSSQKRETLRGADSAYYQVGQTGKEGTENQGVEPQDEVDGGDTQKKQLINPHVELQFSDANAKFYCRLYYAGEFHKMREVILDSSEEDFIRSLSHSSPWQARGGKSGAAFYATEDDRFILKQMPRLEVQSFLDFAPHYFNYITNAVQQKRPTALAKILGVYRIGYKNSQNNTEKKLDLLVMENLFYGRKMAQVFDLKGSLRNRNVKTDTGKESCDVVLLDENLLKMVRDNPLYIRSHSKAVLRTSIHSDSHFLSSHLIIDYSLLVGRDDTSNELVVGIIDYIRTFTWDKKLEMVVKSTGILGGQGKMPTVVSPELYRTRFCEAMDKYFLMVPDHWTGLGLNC
Assay method text: Cell-based Pikfyve inhibition activity assay (EEA1 staining, mean vesicle size in BJ fibroblast cells)
Condition details: Table 4, 4 hours treatment, 3 μM Apilimod = 100% inhibition
Test readout: EC50

Some entries whose results are on file:
[[record]]
molecule = "Cn1cc(CCOc2nc(N3CCOCC3)cc(-n3ccc(-c4cccnc4)n3)n2)cn1"
test_readout = "EC50"
result_value = "500 to 5000 nM"

[[record]]
molecule = "Cc1cccc(-c2ccn(-c3cc(N4CCOCC4)nc(/C=C/c4cnn(C)c4)n3)n2)c1"
test_readout = "EC50"
result_value = "20 to 100 nM"

[[record]]
molecule = "Cn1cc(CCOc2nc(Oc3cc(-c4ccccc4)[nH]n3)cc(N3CCOCC3)n2)cn1"
test_readout = "EC50"
result_value = "500 to 5000 nM"

[[record]]
molecule = "CO[C@H](CO)c1nc(N2CCOCC2)cc(-n2ccc(-c3c[nH]c4ccccc34)n2)n1 (single isomer, unassigned)"
test_readout = "EC50"
result_value = "< 20 nM"

[[record]]
molecule = "Cc1cccc(-c2ccn(-c3cc(N4CCOCC4)nc(NC(=O)CC4CC4)n3)n2)c1"
test_readout = "EC50"
result_value = "100 to 500 nM"


Would you mind giving EC50 for every molecule in the list below?
1. CC(=O)c1nc(N2CCOCC2)cc(-n2ccc(-c3cccc(C)c3)n2)n1
2. Cc1cccc(-c2ccn(-c3cc(N4CCOCC4)ncn3)n2)c1
3. COc1cc(N2CCOCC2)nc(-n2ccc(-c3cccc(C)c3)n2)n1
4. Cc1cccc(-c2ccn(-c3cc(N4CCOCC4)nc([C@H]4CCOC4)n3)n2)c1 (single isomer, unassigned)

Completion:
1. 100 to 500 nM
2. 500 to 5000 nM
3. 100 to 500 nM
4. > 5000 nM

Would you mind giving EC50 for every molecule in the list below?
1. CCO[C@H](CO)c1nc(N2CCOCC2)cc(-n2ccc(-c3cccc(C)c3)n2)n1 (single isomer, unassigned)
2. Cc1cccc(-c2ccn(-c3cc(N4CCOCC4)nc(OCC4CC4)n3)n2)c1
3. Cn1nccc1CC(O)c1nc(N2CCOCC2)cc(-n2ccc(-c3ccccc3)n2)n1 (stereo not drawn)
4. CO[C@@H](CO)c1nc(N2CCOCC2)cc(-n2nc(-c3ccccc3)cc2C)n1

Completion:
100 to 500 nM
100 to 500 nM
500 to 5000 nM
500 to 5000 nM

Would you mind giving EC50 for every molecule in the list below?
1. Cc1cccc(-c2ccn(-c3cc(N4CCOCC4)nc(OCCc4cnn(CCN(C)C)c4)n3)n2)c1
2. CO[C@H](CO)c1nc(N2CCO[C@@H](C)C2)cc(-n2ccc(-c3cccc(C)c3)n2)n1 (single isomer, unassigned)

Completion:
1. 20 to 100 nM
2. 500 to 5000 nM

Would you mind giving EC50 for every molecule in the list below?
1. Cc1cccc(-c2ccn(-c3cc(N4CCOCC4)nc(CCC(O)c4cnn(C)c4)n3)n2)c1 (stereo not drawn)
2. CN(C)CCc1cc(-c2ccccc2)nn1-c1cc(N2CCOCC2)nc(OCCc2cnn(C)c2)n1
3. CO[C@@H](CO)c1nc(N2CCOCC2)cc(-n2ccc(-c3c[nH]c4ncccc34)n2)n1
4. Cc1cccc(-c2ccn(-c3cc(N4CCOCC4)nc([C@H](CO)OC(F)F)n3)n2)c1 (single isomer, unassigned)
5. Cc1cccc(-c2ccn(-c3cc(N4CCOCC4)nc([C@H]4CCCO4)n3)n2)c1 (single isomer, unassigned)
6. Cc1cc(-c2ccccc2)nn1-c1cc(N2CCOCC2)nc(N)n1

Completion:
1: 20 to 100 nM; 2: < 20 nM; 3: 100 to 500 nM; 4: 500 to 5000 nM; 5: 500 to 5000 nM; 6: 500 to 5000 nM
